molecular target: Cholinesterase (Equus caballus, UniProt P81908)
Sequence (P81908 whole entry): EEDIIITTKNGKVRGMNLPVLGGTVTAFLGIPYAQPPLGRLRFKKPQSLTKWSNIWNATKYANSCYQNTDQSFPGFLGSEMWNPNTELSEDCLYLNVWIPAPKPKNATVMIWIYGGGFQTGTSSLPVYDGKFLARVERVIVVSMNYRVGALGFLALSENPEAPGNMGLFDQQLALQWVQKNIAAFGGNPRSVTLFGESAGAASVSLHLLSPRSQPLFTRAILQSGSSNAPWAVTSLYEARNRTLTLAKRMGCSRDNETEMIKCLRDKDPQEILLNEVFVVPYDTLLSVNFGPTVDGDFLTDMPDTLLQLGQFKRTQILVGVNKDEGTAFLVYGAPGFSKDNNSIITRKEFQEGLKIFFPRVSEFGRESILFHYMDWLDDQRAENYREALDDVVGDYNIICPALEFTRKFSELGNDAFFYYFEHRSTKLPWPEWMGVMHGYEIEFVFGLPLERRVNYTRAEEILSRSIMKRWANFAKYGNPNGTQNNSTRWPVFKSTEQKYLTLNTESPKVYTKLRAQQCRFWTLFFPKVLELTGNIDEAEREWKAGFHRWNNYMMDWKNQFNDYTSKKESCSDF
MEASUREMENT NAME: pIC50
Just the number, please; pIC50 means minus log10 of the concentration in mol/L.

{"columns": ["COMPOUND", "pIC50"],
 "data": [
  ["COc1cc(/C=C2\\CN(C)C/C(=C\\c3cc(OC)c(OC)c(OC)c3Br)C2=O)c(Br)c(OC)c1OC", 4.98]
]}

Exercise: Fill in the blank: the reported pIC50 of COc1cccc(/C=C2\CC(C)C/C(=C\c3cccc(OC)c3Cl)C2=O)c1Cl (stereo not drawn) is ____.
Key: 4.30

----------
Assay read-out pIC50; system under study: Acetylcholinesterase (Electrophorus electricus, UniProt O42275).
Sequence (O42275 whole entry): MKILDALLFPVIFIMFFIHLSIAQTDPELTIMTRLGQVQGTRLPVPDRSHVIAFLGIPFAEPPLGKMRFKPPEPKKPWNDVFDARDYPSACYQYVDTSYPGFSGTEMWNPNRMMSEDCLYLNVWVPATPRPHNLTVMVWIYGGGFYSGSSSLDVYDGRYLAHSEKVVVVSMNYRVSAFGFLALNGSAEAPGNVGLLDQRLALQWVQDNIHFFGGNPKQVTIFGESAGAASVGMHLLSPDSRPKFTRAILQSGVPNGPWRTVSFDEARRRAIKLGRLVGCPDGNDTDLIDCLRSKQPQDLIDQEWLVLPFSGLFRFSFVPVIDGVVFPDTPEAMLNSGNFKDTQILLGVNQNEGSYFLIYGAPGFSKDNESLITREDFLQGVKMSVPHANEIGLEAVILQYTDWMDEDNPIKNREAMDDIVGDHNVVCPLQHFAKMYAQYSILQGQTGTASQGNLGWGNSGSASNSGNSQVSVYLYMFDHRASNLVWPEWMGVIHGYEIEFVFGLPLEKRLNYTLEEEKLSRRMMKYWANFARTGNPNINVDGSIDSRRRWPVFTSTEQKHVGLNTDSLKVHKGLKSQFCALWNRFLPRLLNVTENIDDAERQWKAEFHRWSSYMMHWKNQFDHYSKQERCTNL
Just the number, please; pIC50 means minus log10 of the concentration in mol/L.

Reference set, count: 8
{"columns": ["MOLECULE", "pIC50"],
 "data": [
  ["COc1cc(/C=C2\\CC(C(C)C)C/C(=C\\c3cc(OC)c(OC)c(OC)c3Br)C2=O)c(Br)c(OC)c1OC (stereo unspecified)", 6.29],
  ["COc1cc(/C=C2\\CN(C)C/C(=C\\c3cc(OC)c(OC)c(OC)c3Br)C2=O)c(Br)c(OC)c1OC", 7.43],
  ["COc1cccc(/C=C2\\CCC/C(=C\\c3cccc(OC)c3Cl)C2=O)c1Cl", 4.65],
  ["COc1cc(/C=C2\\CCC/C(=C\\c3cc(OC)c(OC)c(OC)c3Br)C2=O)c(Br)c(OC)c1OC", 4.90],
  ["COc1ccc(/C=C2\\CC(C)C/C(=C\\c3ccc(OC)c(OC)c3Cl)C2=O)c(Cl)c1OC (stereo unspecified)", 5.68],
  ["COc1cc(/C=C2\\CNC/C(=C\\c3cc(OC)c(OC)c(OC)c3Br)C2=O)c(Br)c(OC)c1OC", 5.72],
  ["COc1ccc(/C=C2\\CC(C(C)C)C/C(=C\\c3ccc(OC)c(OC)c3Cl)C2=O)c(Cl)c1OC (stereo unspecified)", 6.04],
  ["COc1cccc(/C=C2\\CC(C)C/C(=C\\c3cccc(OC)c3Cl)C2=O)c1Cl (stereo unspecified)", 5.25]
]}

Exercise: Fill in the blank: the reported pIC50 of `COc1cccc(/C=C2\COC/C(=C\c3cccc(OC)c3Cl)C2=O)c1Cl` is ____.
Key: 5.02

Exercise: Again, but for `COc1ccc(/C=C2\CCC/C(=C\c3ccc(OC)c(OC)c3Cl)C2=O)c(Cl)c1OC`
Key: 4.76

Exercise: Again, but for `COc1cccc(/C=C2\CNC/C(=C\c3cccc(OC)c3Cl)C2=O)c1Cl`
Key: 5.28
